- testSummary: Drug level in HCT116 xenografted mouse tumor at 50 mg/kg, ip after 6 hrs
- Assay type: ADME, organism-based, Neoplasm
- Set-up: dose 50 mg/kg, route intraperitoneal
- conditionLabel: human, tumor (HCT116 xenograft), read-out: Drug uptake
reportedProperty: concentration at 6 h (µM)

[[record]]
molecule = "O=C(Nc1ccc(F)c(Cl)c1)Nc1ncc(CCNc2ncnc3ccsc23)s1"
reportedvalue = 25.8


P = O=C(Nc1cccc(F)c1)Nc1ncc(CCNc2ncnc3ccsc23)s1
Q = O=C(Nc1ccc(Cl)c(Cl)c1)Nc1ncc(CCNc2ncnc3ccsc23)s1
R = O=C(Nc1ncc(CCNc2ncnc3ccsc23)s1)Nc1cccc2cc[nH]c12
S = CS(=O)(=O)O.O=C(Nc1cccc(Cl)c1)Nc1ncc(CCNc2ncnc3ccsc23)s1 [SNS-314 MESYLATE]
Data request: Task field, ranking: reported concentration at 6 h, descending order. To answer, arrange all of the labels according to the requested order.
Data returned: Q, S, R, P
